system: SF-268 CNS; test: NCI tumour cell line growth inhibition, 48 h
Entries and their TGI values follow.

// worked examples, TGI included
compound	TGI
CCC1CCN=C(Cn2cc(C)c(=O)[nH]c2=O)N1 (stereo not drawn)	> 100 µM
[O-][n+]1onc2c1-c1nonc1CC2	> 100 µM
C/C(=C\[C@H]1C[C@@H]([C@@H]2CC[C@]34C[C@]23C=C[C@@H]2[C@@]3(C)CC=C5C[C@@H](c6ccccc6)OC[C@]5(C)[C@@H]3C[C@@H](O)[C@]24C)C(=O)O1)CO	> 70.1 µM
CCOC(=O)c1c2c(n3cccc(F)c13)C(=O)c1ncccc1C2=O	28.2 µM
COc1ccc2nc(-c3ccc(O)cc3)cn2c1	> 100 µM
CN(C)CCOc1cccc(NC2=C(Cl)C(=O)C(Nc3cccc(OCCN(C)C)c3)=C(Cl)C2=O)c1	3.48 µM
Nc1nc(Cl)cc(NCC2(CO)CCC(OCc3ccccc3)C2)n1 (stereo not drawn)	> 100 µM
O=C1/C(=C/c2ccc(O)cc2)CCc2ccccc21	37.6 µM

Please give the measured TGI for this compound: COc1cc2c3c(n(CCCN4CCOCC4)c(=O)c2cc1OC)-c1cc2c(cc1C3=O)OCO2
> 100 µM

Name the reported TGI value associated with the compound O=C1CSc2ccncc2N1
> 100 µM

What does the record list as TGI for COc1ccc(OC)c(/C=C/c2cnnc3ccccc23)c1 ?
> 10 µM

What does the data say about its TGI? Entry: O=CN/C=C/c1ccccc1O
> 100 µM

For the compound O=C(Nc1ncc(Cc2ccc(Cl)cc2)s1)c1ccc2c(c1)OCCO2 , what TGI is on record?
> 100 µM

Form field: reported TGI of COc1ccc(C2C3=C(CCCC3=O)N(c3ccccc3)C3=C2C(=O)CCC3)cc1
> 100 µM

# TGI lookup, item CCOC(=O)C1=C(N)Oc2cc(OC)ccc2C1c1ccc(F)c(F)c1 (stereo not drawn)
23.5 µM

Bench note: what TGI did C[C@H]1[C@H](C)CC[C@]2(C(=O)O)CC[C@]3(C)C(=CC[C@@H]4[C@@]5(C)CC[C@H](OC(=O)/C=C\c6ccc(O)cc6)C(C)(C)[C@@H]5CC[C@]43C)[C@H]12 show?
14.8 µM

Look at this compound and give its reported TGI. O=C1/C(=C/c2cccc3ccccc23)Cc2ccccc21
65.7 µM

Recorded TGI for O=C(O)CCCC#CCCCC(=O)O , please?
> 100 µM

What measured TGI goes with COc1cccc(-c2cc(NCc3ccc4c(c3)OCO4)nc(N)n2)c1 ?
22.9 µM

Fill in: TGI of CCC(CCCCC1CC[C@H]2CC(=O)C[C@@H]12)OC (stereo partly drawn) is ___
> 100 µM

Reported TGI, compound C=C1CCC2C(C)(CO)C(O)CCC2(C)C1CC(O)C1=CCOC1=O (stereo not drawn) : ____
> 100 µM
